Ref: the supplement of paper PMC8617591

# Tested on: Mycobacterium tuberculosis Erdman (autoluminescent)
# assay-details: total FIC90 (Loewe) at 90% inhibition, three-drug combination (log2); higher = more antagonistic
# experimental-context: in vitro model: valerate; time point: terminal (~4-5 doublings, model-specific)
experimental-readout: total FIC90

INSERT INTO assay_data (molecule, experimental_readout, numeric_readout) VALUES
  ('O=[N+]([O-])c1cn2c(n1)OC[C@@H](OCc1ccc(OC(F)(F)F)cc1)C2 [pretomanid] + NC(=O)c1cnccn1 [pyrazinamide] + CO[C@H]1/C=C/O[C@@]2(C)Oc3c(C)c(O)c4c(O)c(c(/C=N/N5CCN(C)CC5)c(O)c4c3C2=O)NC(=O)/C(C)=C\C=C\[C@H](C)[C@H](O)[C@@H](C)[C@@H](O)[C@@H](C)[C@H](OC(C)=O)[C@@H]1C', 'total FIC90', -0.0725),
  ('CC(C)/N=c1\cc2n(-c3ccc(Cl)cc3)c3ccccc3nc-2cc1Nc1ccc(Cl)cc1 [clofazimine] + COc1c(N2C[C@@H]3CCCN[C@@H]3C2)c(F)cc2c(=O)c(C(=O)O)cn(C3CC3)c12 [moxifloxacin] + CO[C@H]1/C=C/O[C@@]2(C)Oc3c(C)c(O)c4c(O)c(c(/C=N/N5CCN(C)CC5)c(O)c4c3C2=O)NC(=O)/C(C)=C\C=C\[C@H](C)[C@H](O)[C@@H](C)[C@@H](O)[C@@H](C)[C@H](OC(C)=O)[C@@H]1C [rifampicin]', 'total FIC90', 1.97),
  ('CC[C@@H](CO)NCCN[C@@H](CC)CO [ethambutol] + CC(=O)NC[C@H]1CN(c2ccc(N3CCOCC3)c(F)c2)C(=O)O1 [linezolid] + O=[N+]([O-])c1cn2c(n1)OC[C@@H](OCc1ccc(OC(F)(F)F)cc1)C2 [pretomanid]', 'total FIC90', 2.13);
